Test system: Vibrio cholerae
Experimental protocol: Antimicrobial activity against Vibrio cholerae MTCC 3906 after 24 to 48 hr by broth microdilution method
Assay type: functional
Measurement type: MIC

- Compound: "CC1(C)CC(=O)C2=C(C1)NC(=O)NC2c1cc2cc(Cl)ccc2[nH]c1=O (stereo not given)"
  Recorded value: "500 µg/mL"
- Compound: "COc1ccc2[nH]c(=O)c(C3NC(=S)NC4=C3C(=O)CCC4)cc2c1 (stereo not given)"
  Recorded value: "200 µg/mL"
- Compound: "CC1(C)CC(=O)C2=C(C1)NC(=O)NC2c1cc2ccccc2[nH]c1=S (stereo not given)"
  Recorded value: "200 µg/mL"
- Compound: "O=C1CCCC2=C1C(c1cc3ccccc3[nH]c1=S)NC(=S)N2 (stereo not given)"
  Recorded value: "250 µg/mL"
- Compound: "O=C1NC2=C(C(=O)CCC2)C(c2cc3ccccc3[nH]c2=O)N1 (stereo not given)"
  Recorded value: "500 µg/mL"
- Compound: "CC1(C)CC(=O)C2=C(C1)N(c1ccccc1)C(=S)NC2c1cc2ccccc2[nH]c1=O (stereo not given)"
  Recorded value: "500 µg/mL"
- Compound: "O=C1NC2=C(C(=O)CCC2)C(c2cc3cc(Cl)ccc3[nH]c2=O)N1 (stereo not given)"
  Recorded value: "100 µg/mL"
- Compound: "O=C1CCCC2=C1C(c1cc3ccccc3[nH]c1=O)NC(=S)N2c1ccccc1 (stereo not given)"
  Recorded value: "200 µg/mL"
- Compound: "COc1ccc2[nH]c(=O)c(C3NC(=S)NC4=C3C(=O)CC(C)(C)C4)cc2c1 (stereo not given)"
  Recorded value: "200 µg/mL"
- Compound: "Cc1ccc2[nH]c(=O)c(C3NC(=O)NC4=C3C(=O)CCC4)cc2c1 (stereo not given)"
  Recorded value: "200 µg/mL"
